Molecular target: UniProt C7H4D2
Sequence (C7H4D2 1-608): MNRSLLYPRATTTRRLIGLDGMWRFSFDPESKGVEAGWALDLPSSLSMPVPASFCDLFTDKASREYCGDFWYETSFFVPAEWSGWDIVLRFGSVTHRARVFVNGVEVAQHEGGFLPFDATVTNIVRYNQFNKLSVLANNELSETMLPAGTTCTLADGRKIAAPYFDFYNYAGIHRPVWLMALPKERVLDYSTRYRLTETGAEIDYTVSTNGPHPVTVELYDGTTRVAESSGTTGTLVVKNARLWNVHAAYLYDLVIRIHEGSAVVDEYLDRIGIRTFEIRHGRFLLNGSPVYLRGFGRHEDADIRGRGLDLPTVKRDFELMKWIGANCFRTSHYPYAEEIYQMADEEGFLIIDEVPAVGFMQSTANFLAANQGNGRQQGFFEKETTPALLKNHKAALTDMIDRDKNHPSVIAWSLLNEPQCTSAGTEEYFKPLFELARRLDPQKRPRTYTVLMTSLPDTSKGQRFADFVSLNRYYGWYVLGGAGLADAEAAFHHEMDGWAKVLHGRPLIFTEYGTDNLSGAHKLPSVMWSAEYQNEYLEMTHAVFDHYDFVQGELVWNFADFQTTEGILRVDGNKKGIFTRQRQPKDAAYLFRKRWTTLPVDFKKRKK
Test: In vitro inhibition assay (pNPG hydrolysis)
Assay type: biochemical
Conditions: pH 7.5; pNPG 900 µM; 1 hour end point; read-out: UNC10201652 (IC50, nM) pH 7.5
quantityName: IC50

| chemicalStructure | result |
| --- | --- |
| C1CCc2c(c(N3CCOCC3)nc3sc4c(N5CCNCC5)nnnc4c23)C1 | > 3000 nM |

###

Molecular target: UniProt I9FNR0
Sequence (I9FNR0 21-875): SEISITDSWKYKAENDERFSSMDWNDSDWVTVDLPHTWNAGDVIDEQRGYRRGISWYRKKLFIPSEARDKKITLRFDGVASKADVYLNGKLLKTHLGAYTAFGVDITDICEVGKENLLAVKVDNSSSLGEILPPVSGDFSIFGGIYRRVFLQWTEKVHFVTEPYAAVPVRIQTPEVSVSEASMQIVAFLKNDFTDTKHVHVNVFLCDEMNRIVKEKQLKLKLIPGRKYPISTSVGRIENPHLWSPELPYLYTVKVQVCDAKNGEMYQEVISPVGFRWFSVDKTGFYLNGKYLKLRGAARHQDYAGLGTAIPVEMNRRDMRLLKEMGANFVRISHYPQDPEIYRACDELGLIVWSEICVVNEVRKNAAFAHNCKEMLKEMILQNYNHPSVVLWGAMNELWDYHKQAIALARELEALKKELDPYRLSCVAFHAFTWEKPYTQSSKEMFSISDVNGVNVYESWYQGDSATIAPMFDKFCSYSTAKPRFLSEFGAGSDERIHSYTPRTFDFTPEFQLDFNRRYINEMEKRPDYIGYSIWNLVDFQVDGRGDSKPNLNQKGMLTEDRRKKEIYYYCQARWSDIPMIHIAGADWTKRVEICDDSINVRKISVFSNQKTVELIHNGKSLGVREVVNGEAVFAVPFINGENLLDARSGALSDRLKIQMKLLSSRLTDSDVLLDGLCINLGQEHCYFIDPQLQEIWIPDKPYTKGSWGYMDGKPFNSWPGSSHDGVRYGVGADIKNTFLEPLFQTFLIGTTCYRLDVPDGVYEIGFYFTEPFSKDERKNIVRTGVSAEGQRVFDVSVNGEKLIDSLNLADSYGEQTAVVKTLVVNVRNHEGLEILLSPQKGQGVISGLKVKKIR
Test: In vitro inhibition assay (pNPG hydrolysis)
Assay type: biochemical
Conditions: Inhibitor 1 (IC50, nM) pH 6.5, pH 6.5; pNPG 900 µM
quantityName: IC50

| chemicalStructure | result |
| --- | --- |
| CCOc1ccc(NC(=S)N(CCO)Cc2cc3cc(C)cc(C)c3[nH]c2=O)cc1 | > 100000 nM |

###

Molecular target: UniProt Q8VNV4
Assay: biochemical
Type: biochemical
Conditions: IC50
quantityName: IC50

| chemicalStructure | assayTarget | quantityName | result |
| --- | --- | --- | --- |
| C1CCc2c(c(N3CCOCC3)nc3sc4c(N5CCNCC5)nnnc4c23)C1 | UniProt Q8VNV4 | IC50 | 26 to 160 nM |

###

Target: Eubacterium eligens GUS (EeGUS) (Lachnospira eligens, UniProt C4Z6Z2)
Sequence (C4Z6Z2 1-611): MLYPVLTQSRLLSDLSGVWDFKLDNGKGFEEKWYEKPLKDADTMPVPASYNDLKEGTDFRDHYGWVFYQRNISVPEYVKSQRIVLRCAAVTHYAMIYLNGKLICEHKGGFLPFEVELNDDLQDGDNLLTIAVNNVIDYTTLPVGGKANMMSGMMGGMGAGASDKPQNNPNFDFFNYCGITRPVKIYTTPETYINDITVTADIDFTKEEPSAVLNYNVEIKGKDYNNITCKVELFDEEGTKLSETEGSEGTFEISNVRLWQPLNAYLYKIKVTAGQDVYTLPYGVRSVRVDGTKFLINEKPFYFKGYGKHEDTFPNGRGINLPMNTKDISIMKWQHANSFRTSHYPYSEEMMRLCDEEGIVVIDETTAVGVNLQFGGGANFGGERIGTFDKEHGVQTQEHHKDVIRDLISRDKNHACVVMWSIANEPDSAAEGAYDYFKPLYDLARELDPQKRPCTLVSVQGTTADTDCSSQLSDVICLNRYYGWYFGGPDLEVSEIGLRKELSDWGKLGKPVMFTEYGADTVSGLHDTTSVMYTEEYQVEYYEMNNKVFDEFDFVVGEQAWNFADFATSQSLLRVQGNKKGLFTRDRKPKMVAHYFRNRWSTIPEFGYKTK
Experiment: In vitro inhibition assay (pNPG hydrolysis)
Assay type: biochemical
Details: Inhibitor 1 (IC50, nM) pH 6.5, pH 6.5; pNPG 900 µM

| chemicalStructure | IC50 |
| --- | --- |
| CCOc1ccc(NC(=S)N(CCO)Cc2cc3cc(C)cc(C)c3[nH]c2=O)cc1 | > 100000 nM |
